# STUDY_TARGET: Nuclear receptor subfamily 1 group I member 3 (Homo sapiens)
# EXPERIMENT: qHTS assay to identify small molecule antagonists of the constitutive androstane receptor (CAR) signaling pathway (AID 1224838);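 further: HepG2 cells stably expressing hCAR with CYP2B6 luciferase reporter stimulated by CITCO; nearly all actives have a fitted effect of over 40% in size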; further: potency means the concentration at half of the fitted maximal effect
# PARTICULARS: HepG2-CYP2B6-hCAR luciferase, CITCO-stimulated, 24 h; series mostly up to 92.4 µM
# Excerpt: U.S. Tox21 Program National Center for Advancing Translational Sciences [NCATS] NIH Chemical Genomics Center [NCGC] U.S. Environmental Protection Agency [EPA] National Institutes of Environmental Health Sciences [NIEHS] National Toxicology Program [NTP] U.S. Food and Drug Administration [FDA] […] Tox21 Assay Protocol Summary: A double-stable (hCAR and CYP2B6-2.2kb) transfected cell line, derived from human hepatoma (HepG2) cells, was utilized for the duration of the quantitative high-throughput screens. […]
Records with an inconclusive call do not appear. Activity calls are given as the source filed them. The call rests on the fitted dose curve; in most records, active means well fitted inhibition curve with a large enough effect in the repeat runs; inconclusive means weak or mixed curves, or effect the other way; inactive means no such curve, though single readings can be large or run the other way.
RECORDED_ENDPOINT: Potency

Some entries whose results are on file:
Consider CCOC(=O)C(O)c1ccccc1 (stereo not given) . Its measured Potency is inactive

Entry under test: "CC(=O)c1cccc([N+](=O)[O-])c1" . Its Potency was inactive

Query "c1cc(CCCc2ccncc2)ccn1" yields Potency of inactive

Form field Potency, entry O=C(O)C(S)C(S)C(=O)O (stereo not given) : inactive

# return Potency for each item in the list
1. Clc1ccc(Cn2c(CN3CCCC3)nc3ccccc32)cc1
2. CCCn1cnc2c1c(=O)n(CCCCC(C)=O)c(=O)n2C
3. C[N+]1(C)CCC(OC(=O)C(O)(c2ccccc2)C2CCCC2)C1 (stereo not given)
4. CCC(=O)O[C@]1(C(=O)CCl)[C@@H](C)C[C@H]2[C@@H]3CCC4=CC(=O)C=C[C@]4(C)[C@@]3(F)[C@@H](O)C[C@@]21C

1: 11.9 µM (active); 2: inactive; 3: inactive; 4: inactive

Report Potency for each item below.
1. OC(CN1CCC(Cc2ccc(F)cc2)CC1)c1ccc(Cl)cc1 (stereo not given)
2. O=C(OCCCCCCOC(=O)c1ccccc1)c1ccccc1
3. COc1cc(C(=O)OCCCN2CCCN(CCCOC(=O)c3cc(OC)c(OC)c(OC)c3)CC2)cc(OC)c1OC
4. O=C1C(O)=C(O)C(=O)C(O)=C1O

23.7 µM (active)
inactive
inactive
inactive

For every record below, what is its Potency?
1. CCCCC(CC)COC(=O)CCCCCCCCC(=O)OCC(CC)CCCC (stereo not given)
2. NCCCN1CCOCC1
3. CN1Cc2cc(C(=O)N3CCC(C4CCNCC4)CC3)ccc2NC(CC(=O)O)C1=O (stereo not given)

inactive
inactive
inactive

Just for reference, PubChem BioAssay (Tox21) is where these values come from.
